Data origin: the Human Domainome abundance scans (Beltran et al. 2025)

B1: Zinc finger homeobox protein 4, residues 2183 to 2238; numbered along this chain, Q86UP3 (parent)
chain: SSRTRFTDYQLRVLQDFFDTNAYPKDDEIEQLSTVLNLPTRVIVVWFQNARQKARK

- Variants of: B1
- experimental-protocol: abundance fitness (aPCA) (normalised: wild type 0, dead -1); higher = more abundant; growth selection in yeast, the domain comes from the species named
- protocol-conditions: Homo sapiens
Assign MET to entries whose abundance fitness meets or exceeds -0.3; assign NOT MET to the rest.

Before answering, review these 5 worked examples.
{"mutation-notation": "F6K", "discrete-label": "NOT MET"}
{"mutation-notation": "Q31H", "discrete-label": "MET"}
{"mutation-notation": "T34Y", "discrete-label": "MET"}
{"mutation-notation": "T20L", "discrete-label": "MET"}
{"mutation-notation": "F18S", "discrete-label": "MET"}

Input line: Is abundance fitness for Y9C at or above -0.3?
Output line: MET

Input line: Is abundance fitness for L11R at or above -0.3?
Output line: MET
